Listing: GI50 of selected compounds
- Test system: M19-MEL
- Procedure text: NCI tumour cell line growth inhibition, 48 h
Activity calls are given as the source filed them. Cut-off read from the data, not from the text of the source: active = GI50 up to about 1.1 µM and inactive = higher.

Cc1c(N)nc(C(CC(N)=O)NCC(N)C(N)=O)nc1C(=O)NC(C(=O)NC(C)C(O)C(C)C(=O)NC(C(=O)NCCc1nc(-c2nc(C(=O)NCCCNC(C)c3ccccc3)cs2)cs1)C(C)O)C(OC1OC(CO)C(O)C(O)C1OC1OC(CO)C(O)C(OC(N)=O)C1O)c1c[nH]cn1 (stereo not given) :: 15 µM (inactive)

-- ask Looking for the measured GI50 of O=C(Nc1nc2c(ncn2C2OC(CO)C(O)C2O)c(=O)[nH]1)c1ccccc1 (stereo not given) , can you help?
-- reply > 100 µM (inactive)

-- ask Then what about the compound Cc1ccccc1C1=C(C(=O)Nc2ccc(Cl)c(Cl)c2)NC(=S)NC1N (stereo not given) ?
-- reply > 100 µM (inactive)

-- ask Now the compound CCSc1nc2n(c(=S)n1)CCN2C
-- reply 13.5 µM (inactive)
